Tested on: HT29 colon
Experiment: NCI tumour cell line growth inhibition, 48 h
Record form. Attribute: TGI. Fill in for each entry.

IN: TGI lookup needed for NC(=O)c1ccc2c(c1)S(=O)(=O)c1ccccc1C2=O , thanks.
OUT: > 100 µM

IN: TGI lookup needed for O=C(c1ccccc1)c1ccc2nc(-c3c(Cl)c(Cl)c(Cl)c(Cl)c3C(=O)N/N=C/c3ccccc3)[nH]c2c1 , thanks.
OUT: > 100 µM

IN: TGI lookup needed for Cc1ccc(SC2=CC(=O)c3nc4ccccc4c4ccnc2c34)cc1 , thanks.
OUT: > 100 µM

IN: TGI lookup needed for O=c1[nH]cnc2[nH]ncc12 , thanks.
OUT: > 5000 µM

IN: TGI lookup needed for O=[Se](=O)c1ccccc1.O=[Se](=O)c1ccccc1.[Cu] , thanks.
OUT: 39.2 µM

IN: TGI lookup needed for Fc1ccc(N=NN2CCCC2)cc1 , thanks.
OUT: > 100 µM

IN: TGI lookup needed for CC(C)NC(=O)OCc1c(COC(=O)NC(C)C)c(-c2ccc(Cl)cc2)n2c1CCC2 , thanks.
OUT: 26.4 µM

IN: TGI lookup needed for Cc1cc(-c2nc3ccccc3s2)ccc1NC(=O)[C@H](C)N , thanks.
OUT: 28.7 µM

IN: TGI lookup needed for CCOc1nc(-c2ccccc2)cc(-c2ccc(N3CCOCC3)cc2)c1C#N , thanks.
OUT: > 100 µM

IN: TGI lookup needed for CCc1ccc2[nH]c(O)c(-c3[nH]c4ccccc4c3N=O)c2c1 , thanks.
OUT: 25.5 µM

IN: TGI lookup needed for COC(OC)C1OC(CO)C(n2ccc(N)nc2=O)C1O (stereo unspecified) , thanks.
OUT: > 100 µM
